target: T1, human NPFF2b (hNPFF2) receptor (human, UniProt Q9Y5X5 103-522); assay: competition with [125I]D-Tyr-NPFF, HEK-293 cells with the cloned receptor
T1 construct: also called NPFF-like; hNPFF-like
T1 sequence (Q9Y5X5 103-522): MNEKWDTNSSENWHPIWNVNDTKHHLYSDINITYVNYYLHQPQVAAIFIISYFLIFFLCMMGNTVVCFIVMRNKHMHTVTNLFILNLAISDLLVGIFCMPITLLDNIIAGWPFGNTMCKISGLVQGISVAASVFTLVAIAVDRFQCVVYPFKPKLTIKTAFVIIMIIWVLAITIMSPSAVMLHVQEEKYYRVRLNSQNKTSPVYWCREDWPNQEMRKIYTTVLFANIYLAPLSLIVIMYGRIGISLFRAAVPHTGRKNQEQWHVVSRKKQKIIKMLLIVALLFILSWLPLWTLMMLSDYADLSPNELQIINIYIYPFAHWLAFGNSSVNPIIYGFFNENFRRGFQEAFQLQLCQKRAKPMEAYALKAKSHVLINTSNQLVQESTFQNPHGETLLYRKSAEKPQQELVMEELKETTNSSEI
Non-standard residues stand in square brackets, D forms with d. No end group written: not given here. NMeF = CN[C@@H](Cc1ccccc1)C(=O)O
Listed here are binders together with their documented pKi.

binder | pKi
AGEGLSSPFWSLAAPQRF-NH2 (also called NPAF) [rat A-18-F-amide] | 8.9
[dY]L[NMeF]QPQRF-NH2 (N-terminus assumed; SMILES CC(C)C[C@H](NC(=O)[C@H](N)Cc1ccc(O)cc1)C(=O)N(C)[C@@H](Cc1ccccc1)C(=O)N[C@@H](CCC(N)=O)C(=O)N1CCC[C@H]1C(=O)N[C@@H](CCC(N)=O)C(=O)N[C@@H](CCCNC(=N)N)C(=O)N[C@@H](Cc1ccccc1)C(N)=O, also called D-Tyr-NPFF; (1DMe)Y8Fa) [(D-Tyr^1-(NMe)Phe^3)NPFF] | 8.5
FMRF-NH2 [FMRF amide] | 8.4
PQRF-NH2 (C-terminal tetrapeptide of NPFF; also called PGRF-amide [sic]) [PQRF-amide] | 7.6
